# ASSAY PROTOCOL: amyloid nucleation score (Sup35N fusion, yeast selection) (log enrichment); library NNK2; higher = more nucleation; inactive = no reads after selection;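 note: zero at mode of non-aggregating sequences after 7 days selection at 30°C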
Quick rule: amyloid nucleation score of at least 0.8 means True, below that means False.

# bool: amyloid nucleation score of "RALLRFMLWFCEIPD" >= 0.8
True

Does the substance "SDCGHAEVVCAGNHGGTSYP" have recorded amyloid nucleation score that is 0.8 or more?
False

Would you say "KRRSLGLLISLVTMGDK" shows amyloid nucleation score at minimum 0.8?
True

Could you tell me if the measured amyloid nucleation score of "FMKSNWIGTT" reaches 0.8 or more?
False

# check: amyloid nucleation score of "VWVWCFR" is greater than or equal to 0.8
True

Does the reported amyloid nucleation score for "SMQCPLAAQTDM" fall at or above the 0.8 mark?
False

Exam item: decide whether the reported amyloid nucleation score for "LCIEMD" is at least 0.8.
False

Can "NLECLYKLFPDFASLIRLCV" be said to have amyloid nucleation score at or above 0.8?
False

Has "RTVYRFNVRI" a recorded amyloid nucleation score greater than or equal to 0.8?
False

Given "YLARASYS" , state whether its amyloid nucleation score is at least 0.8.
False

Please check the record "MIVMLESLRRTTSQP" and state if its amyloid nucleation score is at or above 0.8.
True

Reported amyloid nucleation score at or above 0.8? "FLIFINMGIRRIRHV"
False

Please check the record "YFKTWAICHWFCNWRRLWMN" and state if its amyloid nucleation score is at or above 0.8.
False

Answer whether amyloid nucleation score of "WSRKECG" is greater than or equal to 0.8.
False

Item "YFLSGRVSEGSAITIRELSP" with amyloid nucleation score of 0.8 or above?
True
